Target: MjCobT (Methanocaldococcus jannaschii)
Sequence (Q58993 whole entry): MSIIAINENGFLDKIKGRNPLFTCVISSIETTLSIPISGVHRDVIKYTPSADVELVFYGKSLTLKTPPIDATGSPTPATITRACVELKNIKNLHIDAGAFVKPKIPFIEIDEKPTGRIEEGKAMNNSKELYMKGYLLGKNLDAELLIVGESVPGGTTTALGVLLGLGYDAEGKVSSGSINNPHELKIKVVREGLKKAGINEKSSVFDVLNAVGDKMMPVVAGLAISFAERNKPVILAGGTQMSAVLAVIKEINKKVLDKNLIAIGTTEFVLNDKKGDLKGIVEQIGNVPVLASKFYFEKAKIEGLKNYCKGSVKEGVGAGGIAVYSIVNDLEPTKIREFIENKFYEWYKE
measured metric: Kd (µM)
Report the value in µM with no unit label.

Q: For O=C([O-])c1ccc[n+]([C@@H]2O[C@H](COP(=O)(O)O)[C@@H](O)[C@H]2O)c1 [NaMN] , what is its reported Kd?
Ans: 3.2
